experiment: Unbound fraction in human plasma by equilibrium dialysis; format: ADME, cell-free
MEASUREMENT_KIND: fraction unbound

INSERT INTO assay_data (entry_smiles, measurement_kind, obs_value) VALUES
  ('O=C(NCCCN1CCCC1)c1cccc(-c2ccccc2N2CCN(CCc3c[nH]c4ccccc34)CC2)c1', 'fraction unbound', 0.033),
  ('O=C(NCCCN1CCCC1)c1cncc(-c2ccccc2OC2CN(CCc3ccc(Cl)c(Cl)c3)C2)c1', 'fraction unbound', 0.11),
  ('O=C(NCCCN1CCCC1)c1cccc(-c2ccccc2N2CCN(CCc3ccc(Cl)cc3)CC2)c1', 'fraction unbound', 0.012),
  ('COc1cccc(CCN2CCN(c3ccccc3-c3cc(C(=O)NCCCN4CCCC4)ccn3)CC2)c1', 'fraction unbound', 0.41),
  ('O=C(NCCCN1CCCC1)c1ccnc(-c2ccccc2N2CCN(CCc3c[nH]c4ccccc34)CC2)c1', 'fraction unbound', 0.34),
  ('Cc1cccc(CCN2CCN(c3ccccc3-c3cc(C#N)cc(C(=O)NCCCN4CCCC4)c3)CC2)c1', 'fraction unbound', 0.023),
  ('Cc1ccccc1-c1cc(C(=O)NCCCN2CCCC2)c2cn[nH]c2n1', 'fraction unbound', 0.43),
  ('O=C(NCCCN1CCCC1)c1cccc(-c2ccccc2N2CCN(CCc3ccccc3)CC2)c1', 'fraction unbound', 0.08),
  ('O=C(NCCCN1CCCC1)c1cncc(-c2ccccc2N2CCN(CCc3c[nH]c4ccccc34)CC2)c1', 'fraction unbound', 0.17),
  ('O=C(NCCCN1CCCC1)c1ccnc(-c2ccccc2N2CCN(CCc3ccc(Cl)c(Cl)c3)CC2)c1', 'fraction unbound', 0.014);

I: COc1cccc(CCN2CCN(c3ccccc3-c3cc(C#N)cc(C(=O)NCCCN4CCCC4)c3)CC2)c1
II: O=C(NCCCN1CCCC1)c1cncc(-c2ccccc2N2CCN(CCc3ccc(Cl)c(Cl)c3)CC2)c1
// pick min by fraction unbound: I , II Indicate your choice by writing its label.
II
(II: 0.011, I: 0.073)

P: Cc1cccc(CCN2CCN(c3ccccc3-c3cccc(C(=O)NCCCN4CCCC4)c3)CC2)c1
Q: COc1cccc(CNC2CCN(c3ccccc3-c3cncc(C(=O)NCCCN4CCCC4)c3)CC2)c1
R: COc1ccc(CCN2CCN(c3ccccc3-c3cc(C(=O)NCCCN4CCCC4)ccn3)CC2)cc1
List items by fraction unbound in falling order. Record the ranking as a list of labels in the requested order.
R, Q, P

P: N#Cc1cc(C(=O)NCCCN2CCCC2)cc(-c2ccccc2N2CCN(CCc3c[nH]c4ccccc34)CC2)c1
Q: COc1cccc(CCN2CCN(c3ccccc3-c3cccc(C(=O)NCCCN4CCCC4)c3)CC2)c1
Higher fraction unbound: P or Q ? Indicate your choice by writing its label.
Q
(Q: 0.1, P: 0.038)

###

target: UniProt:Q9NRG4; test: Inhibition of SMYD2 (unknown origin)
MEASUREMENT_KIND: IC50 (µM)

Solved cases below.
INSERT INTO measurements (compound, measurement_unit, obs_value) VALUES
  ('O=C(NCCCN1CCCC1)c1cc(-c2ccccc2Cl)nc2[nH]ncc12', 'µM', 8),
  ('CCc1ccccc1-c1cc(C(=O)NCCCN2CCCC2)c2cn[nH]c2n1', 'µM', 8.4),
  ('Cc1ccccc1-c1cc(C(=O)NCCCN2CCOCC2)c2cn[nH]c2n1', 'µM', 41.3),
  ('Cc1cccc(CCN2CCN(c3ccccc3-c3cc(C#N)cc(C(=O)NCCCN4CCCC4)c3)CC2)c1', 'µM', 0.031),
  ('COc1cccc(CNC2CCN(c3ccccc3-c3cncc(C(=O)NCCCN4CCCC4)c3)CC2)c1', 'µM', 0.039),
  ('O=C(NCCCN1CCCC1)c1cc(-c2ccccc2N2CCN(CCc3ccc(Cl)c(Cl)c3)CC2)nc2[nH]ncc12', 'µM', 0.065);

1: Cc1ccccc1-c1cc(C(=O)NCC(Cc2ccccc2)CN2CCCC2)c2cn[nH]c2n1 (stereo not given)
2: Cc1ccccc1-c1cccc(C(=O)NCCCN2CCCC2)c1
3: Cc1cccc(CCN2CCN(c3ccccc3-c3cccc(C(=O)NCCCN4CCCC4)c3)CC2)c1
Sort entries by IC50 from minimum to maximum value. Record the ranking as a list of labels in the requested order.
3, 1, 2
(3: 0.211 µM, 1: 3.6 µM, 2: 17.4 µM)

###

target: N-lysine methyltransferase SMYD2 (Homo sapiens); experiment: Inhibition of SMYD2 (unknown origin) expressed in human U2OS cells assessed as reduction in monomethylated p53 levels incubated for 24 hrs by immunofluorescence assay; type: cell-based
pIC50: −log10 of the molar value.
MEASUREMENT_KIND: pIC50

1: O=C(NCCCN1CCCC1)c1cncc(-c2ccccc2N2CCN(CCc3c[nH]c4ccccc34)CC2)c1
2: N#Cc1cc(C(=O)NCCCN2CCCC2)cc(-c2ccccc2N2CCN(CCc3ccc(Cl)c(Cl)c3)CC2)c1
// pick min by pIC50: 1 , 2 Indicate your choice by writing its label.
1

###

assay: Solubility of compound in 0.1 M phosphate buffer at pH 7.4 at 25 degC after 24 hrs; type: physicochemical
MEASUREMENT_KIND: solubility at 24 h (µM)

Solved cases below.
INSERT INTO results (entry_smiles, measurement_kind, obs_value) VALUES
  ('O=C(NCCCN1CCCC1)c1cccc(-c2ccccc2N2CCN(CCc3ccc(Cl)cc3)CC2)c1', 'solubility at 24 h', 332),
  ('O=C(NCCCN1CCCC1)c1cncc(-c2ccccc2N2CCN(CCc3ccc(Cl)c(Cl)c3)CC2)c1', 'solubility at 24 h', 393),
  ('O=C(NCCCN1CCCC1)c1cncc(-c2ccccc2N2CCN(CCc3c[nH]c4ccccc34)CC2)c1', 'solubility at 24 h', 858),
  ('O=C(NCCCN1CCCC1)c1ccnc(-c2ccccc2N2CCN(CCc3ccc(Cl)c(Cl)c3)CC2)c1', 'solubility at 24 h', 790),
  ('N#Cc1cc(C(=O)NCCCN2CCCC2)cc(-c2ccccc2N2CCN(CCc3c[nH]c4ccccc34)CC2)c1', 'solubility at 24 h', 396);

a: O=C(NCCCN1CCCC1)c1cc(-c2ccccc2N2CCN(CCc3ccc(Cl)c(Cl)c3)CC2)nc2[nH]ncc12
b: N#Cc1cc(C(=O)NCCCN2CCCC2)cc(-c2ccccc2N2CCN(CCc3ccc(Cl)c(Cl)c3)CC2)c1
c: Cc1cccc(CCN2CCN(c3ccccc3-c3cc(C#N)cc(C(=O)NCCCN4CCCC4)c3)CC2)c1
List items by solubility at 24 h in falling order. Record the ranking as a list of labels in the requested order.
c, a, b

###

molecular target: N-lysine methyltransferase SMYD2 (Homo sapiens, UniProt Q9NRG4); assay: Inhibition of SMYD2 (unknown origin)
Sequence (Q9NRG4 whole entry): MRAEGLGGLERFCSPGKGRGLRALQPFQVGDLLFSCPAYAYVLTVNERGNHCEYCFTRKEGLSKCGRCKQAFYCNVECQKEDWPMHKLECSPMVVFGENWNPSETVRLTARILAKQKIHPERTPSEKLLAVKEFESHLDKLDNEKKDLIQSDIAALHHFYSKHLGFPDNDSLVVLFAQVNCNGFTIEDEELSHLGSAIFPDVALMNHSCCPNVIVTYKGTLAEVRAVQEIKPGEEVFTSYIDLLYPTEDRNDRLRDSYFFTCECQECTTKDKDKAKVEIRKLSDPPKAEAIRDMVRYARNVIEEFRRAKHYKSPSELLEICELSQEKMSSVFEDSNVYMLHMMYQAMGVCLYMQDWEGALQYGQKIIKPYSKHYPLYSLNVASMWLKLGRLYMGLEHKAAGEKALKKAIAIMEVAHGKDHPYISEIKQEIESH
MEASUREMENT_KIND: IC50 (µM)

Solved cases below.
INSERT INTO measurements (entry_smiles, obs_value) VALUES
  ('COc1cc(C(=O)NCCCN2CCCC2)cc(-c2ccccc2C)n1', 9.9),
  ('Cc1ccccc1-c1cc(C(=O)N2CCC(N3CCCCC3)CC2)c2cn[nH]c2n1', 16.9);

a: Cc1ccccc1-c1cc(C(=O)NCCCN2CCCC2)c2c(C3CC3)n[nH]c2n1
b: O=C(NCCCN1CCCC1)c1cccc(-c2ccccc2N2CCN(CCc3ccc(Cl)cc3)CC2)c1
Higher IC50: a or b ? Indicate your choice by writing its label.
a

###

assay: Unbound fraction in human plasma by equilibrium dialysis; assay type: ADME, cell-free
Measured fraction unbound of individual entries

Solved cases below.
INSERT INTO results (entry_smiles, obs_value) VALUES
  ('N#Cc1cc(C(=O)NCCCN2CCCC2)cc(-c2ccccc2N2CCN(CCc3ccc(Cl)c(Cl)c3)CC2)c1', '< 0.01'),
  ('O=C(NCCCN1CCCC1)c1cccc(-c2ccccc2N2CCN(CCc3ccc(Cl)c(Cl)c3)CC2)c1', '< 0.01'),
  ('O=C(NCCCN1CCCC1)c1ccnc(-c2ccccc2N2CCN(CCc3ccc(Cl)cc3)CC2)c1', 0.13);

Entry `O=C(NCCCN1CCCC1)c1cc(-c2ccccc2N2CCN(CCc3ccc(Cl)c(Cl)c3)CC2)nc2[nH]ncc12` : reported fraction unbound = ?
< 0.01

###

target: UniProt:Q9NRG4; assay: Inhibition of SMYD2 (unknown origin)
MEASUREMENT_KIND: IC50 (µM)

INSERT INTO measurements (entry_smiles, obs_value) VALUES
  ('O=C(NCCCN1CCCC1)c1cncc(-c2ccccc2OC2CN(CCc3ccc(Cl)c(Cl)c3)C2)c1', 0.012),
  ('Cc1ccccc1-c1cc(C(=O)NCCCN2CCC(N3CCCCC3)CC2)c2cn[nH]c2n1', 19.6),
  ('Cc1ccccc1-c1cc(C(=O)NCCCN2CCCC2)c2c(C)n[nH]c2n1', 8.9),
  ('O=C(NCCCN1CCCC1)c1cccc(-c2ccccc2N2CCN(CCc3ccc(Cl)c(Cl)c3)CC2)c1', 0.165),
  ('CN(CCCN1CCCC1)C(=O)c1cc(-c2ccccc2Br)nc2[nH]ncc12', 7.3);

a: COc1cc(C(=O)NCCCN2CCCC2)cc(-c2ccccc2C)c1
b: Cc1ccccc1-c1cc(C(=O)NCCCN2CCCC2)c2cn[nH]c2n1
c: O=C(NCCCN1CCCC1)c1ccnc(-c2ccccc2N2CCN(CCc3c[nH]c4ccccc34)CC2)c1
List items by IC50 in falling order. Record the ranking as a list of labels in the requested order.
a, b, c
(a: 22.1 µM, b: 5.6 µM, c: 0.062 µM)

I: O=C(NCCCN1CCCC1)c1ccnc(-c2ccccc2N2CCN(CCc3ccc(Cl)cc3)CC2)c1
II: O=C(NCCCN1CCCC1)c1cncc(-c2ccccc2N2CCN(CCc3ccc(Cl)c(Cl)c3)CC2)c1
// pick min by IC50: I , II Indicate your choice by writing its label.
II
(II: 0.038 µM, I: 0.305 µM)
